Items are presented alongside their recorded cytotoxicity at 70.5 h.
- assay.overview: Human HepG2 cell viability assay in 384 well format
- Format: toxicity, cell-based
- Parameters: dose 125 nL, time 70.5 hour; concentration not given beside the values
- run.conditions: HepG2 cells, read-out: Inhibition
Reply with just the number (in %).

Sample records with cytotoxicity at 70.5 h:
Problem: Find the recorded cytotoxicity at 70.5 h belonging to `CC(C)(C)c1ccn(C2(C(=O)O)CCN(c3nccc(N)n3)CC2)n1` and report it.
Solution: -3.64

Problem: Next: CCN1CCCC(CN(C)c2nccc(-c3ccc(C)nc3C)n2)C1 (stereo unspecified)
Solution: -1.39

Problem: Next: Cc1ccc(CC(=O)N2Cc3nccn3CC(Cn3cccn3)C2)cc1 (stereo unspecified)
Solution: -0.504

Further cases:
Problem: Find the recorded cytotoxicity at 70.5 h belonging to `Cc1ccc2cc(C(=O)N3CCC(O)(C(F)(F)F)CC3)ccc2n1` and report it.
Solution: 0.437

====

- assay.overview: Human HepG2 cell viability assay in 384 well format
- Type: toxicity, cell-based
- Parameters: dose 125 nL, time 70.5 hour; concentration not given beside the values
- run.conditions: HepG2 cells, read-out: Inhibition
value.kind: cytotoxicity at 70.5 h (%)
Reply with just the number (in %).

Sample records with cytotoxicity at 70.5 h:
Problem: Find the recorded cytotoxicity at 70.5 h belonging to N#Cc1cccc(S(=O)(=O)NC(=O)C2CC(c3ccccc3)=NO2)c1 (configuration not stated) and report it.
Solution: -18.7

Problem: Next: CC(=O)N1CCN(CCOc2ccc(F)cc2)CC(C(N)=O)C1 (configuration not stated)
Solution: -9.44

Problem: Next: O=C(CCCc1cn[nH]c1)N1CCOCC(O)C1 (configuration not stated)
Solution: 0.158

Further cases:
Problem: Find the recorded cytotoxicity at 70.5 h belonging to Cc1cnc(N2CCC3(CC2)CC3CNC(=O)C2CCC2)nc1 (configuration not stated) and report it.
Solution: -1.64

Problem: Next: `CS(=O)(=O)NCc1cnc2n1CCN(Cc1ccsc1)CC2`
Solution: 8.08

====

- assay.overview: Human HepG2 cell viability assay in 384 well format
- Format: toxicity, cell-based
- Set-up: dose 125 nL, time 70.5 hour; concentration not given beside the values
- run.conditions: HepG2 cells, read-out: Inhibition
value.kind: cytotoxicity at 70.5 h (%)
Reply with just the number (in %).

Problem: Find the recorded cytotoxicity at 70.5 h belonging to O=C(NC1CCCN(Cc2c(F)cccc2F)C1)c1cc[nH]n1 (stereo unspecified) and report it.
Solution: -18

Problem: Next: Cc1cc(C(C)NC(=O)c2cnc3onc(C)c3c2)c(C)o1 (stereo unspecified)
Solution: -5.78

Problem: Next: Cc1nnc(NC(=O)N2CCCCC2CCO)s1 (stereo unspecified)
Solution: -0.98

Problem: Next: `CC(=O)NCC(=O)N1CCC2(CC1)CN(c1cccnc1)C(=O)CO2`
Solution: -13.6

Problem: Next: `Cc1nn(C)cc1CNCc1ccc(N(C)C)cc1`
Solution: 1.1

We now examine a further molecule.
Problem: Find the recorded cytotoxicity at 70.5 h belonging to CC(NC(=O)N(C)Cc1ccsc1)c1nncn1C (stereo unspecified) and report it.
Solution: -2.73

====

Items are presented alongside their recorded cytotoxicity at 70.5 h.
- assay.overview: Human HepG2 cell viability assay in 384 well format
- Format: toxicity, cell-based
- Parameters: dose 125 nL, time 70.5 hour; concentration not given beside the values
- run.conditions: HepG2 cells, read-out: Inhibition
Reply with just the number (in %).

Sample records with cytotoxicity at 70.5 h:
Problem: Find the recorded cytotoxicity at 70.5 h belonging to O=C(c1ccc(-n2ccnc2)nc1)N1CCCC(n2cccn2)C1 (stereo unspecified) and report it.
Solution: 1.69

Problem: Next: `CS(=O)(=O)N[C@@H]1CN(Cc2ccccc2)C[C@@H]2CCCO[C@@H]21`
Solution: -4.64

Problem: Next: O=C(NCCCO)C1(CC2CC(c3ccc(F)cc3)=NO2)CCOCC1 (stereo unspecified)
Solution: -5.38

Further cases:
Problem: Find the recorded cytotoxicity at 70.5 h belonging to Cn1cc(CN2CCC3(CCCN(C(=O)c4cscn4)C3)C2)cn1 (stereo unspecified) and report it.
Solution: -3.85

Problem: Next: `CCOC(=O)c1ccc(CNC(=O)c2ccc(C)nc2)o1`
Solution: 11

Problem: Next: `c1cnc(N2CC[C@@H]3O[C@@H](COCc4cccnc4)CC[C@@H]32)nc1`
Solution: -0.916
